Sourced from the nanobody polyreactivity screen of Harvey et al. (2022)

MEASUREMENT DESCRIPTION: yeast display, Sf9 membrane polyspecificity reagent, FACS + sequencing; frameworks hold sequencing errors
ENDPOINT LABEL: polyreactivity (PSR sort gate)

Query: Bench note: what polyreactivity (PSR sort gate) did QVQLVESGGGLDQAGGSLRLSCAASGRTFRYYAMGWDRQAPGKERELVAAITGSGGSTYYADSVKGRFTISRDIAKNTVYLQMNSLKPEDTAVYYCATRWALRWRGGYWGQGTQVTVSS show?
Reply: high polyreactivity

Query: Please give the result for QVQLVESGGGLVQAGGSLRLSWAASGSIFFFNAMGWYRQAPGKEREFVAAITSSSGRTYYADSVKGRFTISRDNAKNTVYLQMNRLKPEDTAVYYCAAQVPEDTETVDYWGQGTQVTVSS too.
Reply: low polyreactivity

Query: Please give the result for QVQLVESGGGLVQAGCSLRLSCAASGSIFDDYAMGWNRQAPGKERELVAAISSSGTSTYYADSVKGRFTISRDNAKNTVYLQMNSLKPEVTAVYYCAARSAILKSGYLMDYWGQGTHVTVSS too.
Reply: low polyreactivity

Query: Please give the result for QVQLVESGGGLVQAGVSLRLSWAASGRTGVNAMGWYRQAPGKERGLVAAINTSVGRTYYADSVKGRFTISRDNAKNPVYLQMNCLKPEDTAVYYCNTDRLGAARYDDWGQGTQVTVSS too.
Reply: low polyreactivity

Query: Please give the result for QVQLVESGGGLVQAGGSLRLSCAASGSTFVVNAMGWYRQAPGKERELVAAITQSGGSTFYADSVKGRFTISRDNAKNTVYLQMNSLKPEETAVYYWGHGTQVTVSS too.
Reply: low polyreactivity

New cases:
Query: Bench note: what polyreactivity (PSR sort gate) did QVQLVESGGGLVQAGGSLRLSCAASGSIFKYYVMGWYRQAPGKERELVAAITRGGRTYYADSVKGRFTISRDNAKNTVYLQMNSLKPEDTAVYYCARSLQTTSGIIPYDYWGQGTQVTVSS show?
Reply: high polyreactivity

Query: Please give the result for QVQLVESGGGLVQAGGSLRLSCAASGFTFTYYAMGWYRHAPGKERELVAAITNSGGTTYYADSVKGRFTISRDNAKNTVYLQMNSLKPEDTAVYYCAAVPYYVLARSFYRYGYWGQGTQVTVSS too.
Reply: low polyreactivity

---

MEASUREMENT DESCRIPTION: yeast display, Sf9 membrane polyspecificity reagent, FACS + sequencing; frameworks hold sequencing errors
ENDPOINT LABEL: polyreactivity (PSR sort gate)

Examples with their reported polyreactivity (PSR sort gate) follow.
Query: Bench note: what polyreactivity (PSR sort gate) did QVQLVESGGGLVQAGGSLRLSCAASGSTFTINAMGWYRQAPGKERELVAAISRSGGSTFYADSVKGRFTISRDNAKNTVYLQMNSLKPEDTAVYYCAAGYRGTAYRYGYCGQGTQVTVSS show?
Reply: high polyreactivity

Query: Please give the result for QVHLVESGGGLVQAGGSLRLSCAASGSIFYRNAMGWYRPAPGKERELVAAISSDGSTNYADSVKGRFTISRDNEKNTVYLQMNSLKPEDTAVYYCAAPWTQILDYWGQGNQVTVSS too.
Reply: low polyreactivity

Query: Please give the result for QVQLVESGGGLVQAGGSLRLSCAASGSIFALYTMGWYRPAPGKERELVAAISRRGGNTYYADSVKGRFTISRDNAKNTVYLQMNSLKPEDTAVYYCNADRLRSTHDYWGQGTQVTVSS too.
Reply: high polyreactivity

Query: Please give the result for QVQLVESGGGLVQAGGSLRLSCAASGRIFVANAMGWYRPAPGKERELVAAISGRGSRTYYADSVKGRFTISRDNAKNTVYLQMNSLKPEDTAVYYCAVRKNRQYTGDYWGQGTQVTVSS too.
Reply: high polyreactivity

New cases:
Query: Bench note: what polyreactivity (PSR sort gate) did QVQLVESGGGLVQAGGSLRLSCASSGSTLFPYAMGWYRQAPGKERELVAAISSRGGRTYYADSVKGRFTISRDNAKNTVYLQMNSLKPEDTAVYYCAAGDDYWGQGTQVTVSS show?
Reply: high polyreactivity

Query: Please give the result for QVQLVESGGGLVQAGGSLRLSCAASVRTFKWYAMGWYRQAPGKERELVAGISRGAGRTYYADSVKWRFTMSRDNAKNTVYLQMNSLKPEDTAVYYCAAVPSYHSTSPFYYWGQGTQVTVSS too.
Reply: high polyreactivity

Query: Please give the result for QVQLVESGGGLVQAGGSLRLSCAASGIIFPRYALGWYRQAPGKERELVAAITIGGRTNYADSVKGRFTISRDNAKNTVYLQMNSLKPEDPAVYYGAAQTYVPYYEYDYWGQGTQVTVSS too.
Reply: low polyreactivity

Query: Please give the result for QVQLEESGGGLVQAGGSLRLSCAASGSIFYVNAMGWYRQAPGKERELVAAITSSGGSTYYADSVKGRFTISRDNAKNTVYLQMNSLIPEDTAVYYCAVDVYPGVFVEEGEYWGQGTQVTVSS too.
Reply: low polyreactivity
